Where do the numbers come from? From paper PMC3585155.

# target-under-test: UNC-75 (Caenorhabditis elegans, UniProt G5EE68 1-514)
# measurement-notes: EMSA; EMSA as described previously (ref 55); buffer, salt, pH and temperature not given
# experimental-conditions: protein: recombinant; tags: FLAG; label: 32P

{"binder": "Probe 2-1-1d (ssRNA) RNA: GGGAGAUUAGCACGCACCCGCCUUCUACUGUAAAAUUAAUUUUUGUUGUGUUGU", "binding result": "binds"}
{"binder": "Probe 2-1-1 (also printed 2-2-1) (ssRNA) RNA: GGGAGAUUAGCACGCACCCGCCUUCUACUGUCCCGUUACUUUUUGUUGUGUUGU", "binding result": "binds"}
